Data provenance is the RNAGym collection of RNA variant scans (doi:10.7554/elife.90254).

B1: LINE1-full (parent)
chain: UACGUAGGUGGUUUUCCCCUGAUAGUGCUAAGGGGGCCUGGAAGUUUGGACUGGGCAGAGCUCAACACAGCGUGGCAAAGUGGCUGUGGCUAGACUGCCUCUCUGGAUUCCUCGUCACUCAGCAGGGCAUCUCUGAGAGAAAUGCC

Variants of: B1
Assay: self-cleavage, relative activity (ratio to wild type); higher = more cleavage; in vitro, sequencing; the parent is a self-cleaving ribozyme
Binary call on self-cleavage: Criterion met from 0.6 upward, Criterion not met beneath that.

U13A U112A: Criterion not met
A6G A140G: Criterion met
A77G A129G: Criterion met
G21A G33A: Criterion met
G75U U104C: Criterion met
A65U U102C: Criterion not met
U13C G72U: Criterion met
A6U U15A: Criterion met
G41A U119C: Criterion met
A69G A94U: Criterion not met
A57U A94G: Criterion not met
U109A A129U: Criterion met
U12A U100C: Criterion met
U15C G88A: Criterion not met
U26A A77C: Criterion not met
G35A U96C: Criterion not met
A77U G122A: Criterion not met
A6U A42G: Criterion not met
U62C G126U: Criterion not met
A24U A79G: Criterion met
A69G A129G: Criterion not met
G75U U81C: Criterion met
G4A A79U: Criterion met
